Kindly state IC50 for each of the entries shown.
# System: BJ
# testName: MTS cytotoxicity assay, 72 h, BJ fibroblasts
# Format: cell-based, human
# recordedConditions: Homo sapiens, BJ, read-out: IC50 BJ

Go through the list and state IC50 for each entry.
1. O=C(NCC(F)(F)F)C1CN(c2cc(-c3ccc(Cl)cc3)n[nH]c2=O)C1 [Compound 38]
2. O=C(NCC(F)(F)F)C1CN(c2cc(-c3cccc(F)c3)n[nH]c2=O)C1 [Compound 36]
3. O=C(NCC(F)(F)F)C1CN(c2cc(-c3ccccc3)n[nH]c2=O)C1 [Compound 35]

["> 50 µM", "> 50 µM", "> 50 µM"]

Item COC(=O)c1cncc(-c2cc(N3CC(C(=O)NCc4ccco4)C3)c(=O)[nH]n2)c1 [Compound 23] has what recorded IC50?
> 50 µM
